Molecular target: Sut1 (UniProt P53032)
Sequence: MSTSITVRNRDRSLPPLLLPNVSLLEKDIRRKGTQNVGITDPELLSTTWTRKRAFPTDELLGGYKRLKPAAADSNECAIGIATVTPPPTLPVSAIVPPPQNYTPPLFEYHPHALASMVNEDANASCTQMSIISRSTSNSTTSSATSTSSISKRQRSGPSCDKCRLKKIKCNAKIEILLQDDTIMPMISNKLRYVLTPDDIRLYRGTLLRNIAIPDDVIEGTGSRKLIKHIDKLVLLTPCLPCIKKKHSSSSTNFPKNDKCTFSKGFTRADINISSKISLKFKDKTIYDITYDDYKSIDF
Assay: PBM E-score (8-mer binding enrichment) (E-score (-0.5 to 0.5)); higher = stronger / more preferred TF binding
Settings: protein concentration: 200 nM; construct: GST-full length
In all, about 33,000 sequences were measured (“E-score (-0.5 to 0.5)”: median about -0.017, highest 2% from about 0.3 on). Only a selection was taken, and the highest values are over-represented in it overall.
Parameter threshold = 0.1. Response is 1 when PBM E-score meets or exceeds it, else -1.

>>> category_label("ATTCTCAG")
-1
>>> category_label("AGCGGACA")
1
>>> category_label("GGGCGTGA")
-1
>>> category_label("ACCCAAAT")
-1
>>> category_label("ACAGAACG")
-1
>>> category_label("CCTATCGC")
-1
>>> category_label("CGGAGAAG")
1
>>> category_label("GCTTTTTA")
1
>>> category_label("AGAGAGTA")
-1
>>> category_label("GAAAAACA")
1
>>> category_label("GAGTCGGC")
-1
>>> category_label("CCAACCAG")
-1
>>> category_label("CTGAGCTC")
1
>>> category_label("TAATGAAA")
1
>>> category_label("CATACCTC")
-1
>>> category_label("CCCGAGAA")
1
>>> category_label("AGCTCAAG")
-1
